System: PEPT1
Test: Drug uptake in CHO cells expressing chicken PEPT1 measured at pH 6
Type: ADME, cell-based, Gallus gallus
Details: CHO cells expressing chicken PEPT1, pH 6
Non-standard residues stand in square brackets, D forms with d. Residues, ends and D or L forms follow the SMILES beside them. Sar = CNCC(=O)O

{"molecule": "CN(CC(=O)O)C(=O)CN [GLYCYLSARCOSINE] (H-Gly-[Sar]-OH)", "Km": "2.6 mM"}

* * *

Tested on: PEPT1
Test: Drug uptake in Xenopus laevis oocytes expressing sheep PEPT1 measured at pH 5.5 and -60 mV by two-electrode voltage-clamp electrophysiology
Format: ADME, cell-based, Ovis aries
Conditions: Xenopus laevis oocytes expressing sheep PEPT1, pH 5.5
Non-standard residues stand in square brackets, D forms with d. Residues, ends and D or L forms follow the SMILES beside them. Sar = CNCC(=O)O

{"molecule": "CN(CC(=O)O)C(=O)CN [GLYCYLSARCOSINE] (H-Gly-[Sar]-OH)", "system_tested": "PEPT1", "Km, µM": 610}
